biological target: Aβ42 (Homo sapiens, UniProt P05067); test: Th-T (thioflavin-T) assay of Aβ42 aggregation; assay type: biochemical; details: time-course reading M115; Supplementary Fig. 47 source data
Sequence (P05067 672-713): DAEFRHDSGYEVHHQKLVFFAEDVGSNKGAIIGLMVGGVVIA
Experimental Readout: Th-T fluorescence, mean of three wells

In the examples that follow, each entry is paired with its recorded Th-T fluorescence, mean of three wells.
| Compound | Th-T fluorescence, mean of three wells |
| --- | --- |
| C=C1CCC2C(C)(CCC=C(C)C)C(O)CCC2(C)C1Cc1c(OC)oc(CO)c(C(=O)OC)c1=O (centres unmarked) [Compound 13] | 1.041 |
| C=C1CCC2C(C)(CCC=C(C)C)C(=O)CCC2(C)C1Cc1c(O)c(C)c(C)oc1=O (centres unmarked) [Compound 8] | 2.1937 |
| C=C1CC[C@H]2[C@]3(C)C[C@@H](C=C(C)C)O[C@H]3CC[C@]2(C)[C@@H]1Cc1c(O)c(C)c(C)oc1=O [Compound 5, subglutinol A] | 2.688 |
| C=C1CCC2C(C)(CCC=C(C)C)C(O)CCC2(C)C1Cc1c(O)c(C)c(C)oc1=O (centres unmarked) [Compound 4] | 2.739 |

Give recorded Th-T fluorescence, mean of three wells with Aβ42 (Homo sapiens, UniProt P05067) for the following compound: C=C1CCC2C(C)(CCC=C(C)C)C(O)CCC2(C)C1Cc1c(OC)oc(CO)c(C)c1=O (centres unmarked) [Compound 12]
2.069

Quick check: Th-T fluorescence, mean of three wells on Aβ42 (Homo sapiens, UniProt P05067), item C=C1CC[C@H]2[C@]3(C)C[C@H](C=C(C)C)O[C@H]3CC[C@]2(C)[C@@H]1Cc1c(OC)oc(CO)c(C)c1=O [Compound 18] ?
3.831

GET /values?readout=Th-T fluorescence, mean of three wells&system=Aβ42 (Homo sapiens, UniProt P05067)&item= C=C1CCC2C(C)(CC(=O)C=C(C)C)C(O)CCC2(C)C1Cc1c(OC)oc(CO)c(C)c1=O (centres unmarked) [Compound 19]
3.6287

Value wanted: Th-T fluorescence, mean of three wells (Aβ42 (Homo sapiens, UniProt P05067)) of entry CC(C)=CCC/C(C)=C/CC/C(C)=C/CC/C(C)=C/Cc1c(O)c(C)c(C)oc1=O [Compound 2]
2.943

====

target: Aβ42 (Homo sapiens, UniProt P05067); test: Th-T (thioflavin-T) assay of Aβ42 aggregation; format: biochemical; conditions: Aβ42 aggregation time course, reading M136
Experimental Readout: Th-T fluorescence, mean of three wells
Give the value as a plain number.

# count of solved cases: 2
| Compound | Reported Measurement |
| --- | --- |
| C=C1CCC2C(C)(CCC=C(C)C)C(O)CCC2(C)C1Cc1c(OC)oc(C)c(C)c1=O (stereo not shown) [Compound 11] | 3.355 |
| C=C1CCC2C(C)(CCC=C(C)C)C(O)CCC2(C)C1Cc1c(O)c(C)c(C)oc1=O (stereo not shown) [Compound 4] | 2.752 |

So what does the record say about Th-T fluorescence, mean of three wells for C=C1CCC2C(C)(CCC=C(C)C)C(O)CCC2(C)C1Cc1c(OC)oc(C)c(C)c1=O (stereo not shown) [Compound 15, viridoxin A hydrolysate] ?
3.347

Look at this compound and give its reported Th-T fluorescence, mean of three wells. C=C1CCC2C3(C)CC(C=C(C)C)OC3CCC2(C)C1Cc1c(OC)oc(C)c(C)c1=O (stereo not shown)
3.777
